# assay.info: in vivo
# condition: rat, plasma, intravenous, 200 nmol/kg, Vss, rat plasma; 200 nmol/kg
readout.type: Vd (L/kg)
Numbers only, in L/kg.

If you can, please state the reported Vd value of CCCCCC(=O)N[C@H]1CSCc2cc(CSCCNC(=O)CN3CCN(CC(=O)O)CCN(CC(=O)O)CCN(CC(=O)O)CC3)cc(c2)CSC[C@@H](C(=O)O)NC(=O)[C@H](Cc2ccccc2)NC(=O)[C@H](CCC(N)=O)NC(=O)[C@H]([C@@H](C)O)NC(=O)[C@@H]2CCCN2C(=O)[C@@H]2CCCN2C1=O [3BP-3554] . 0.17

* * *

# system: Human recombinant FAP (Homo sapiens)
# assay.info: FRET-based FAP protease activity assay
# Assay type: biochemical
# Set-up: purchased R&D systems 3715-SE
# condition: pIC50 Category (Activity), recombinant human FAP, FRET substrate, 37° C.
pIC50: −log10 of the molar value. Numbered stars: 1 amine (or outer) side, 2 acyl side, 3 side chain; on linkers, the order of the positions; unused ones are H or OH. Bridge positions count the residues as written; N and C are the ends. Square brackets hold non-standard residues; d marks the D form. Peptide text beside a SMILES is read from it. * marks the point of attachment. X19 = NC(=O)[C@H](CCCCNC(=O)CN1CCN(CC(=O)O)CCN(CC(=O)O)CCN(CC(=O)O)CC1)NC(=O)CCC(=O)NCCCOCCOCCNCCCN*; mXylylene = c1cc(C[*:1])cc(C[*:2])c1; 4Pal = N[C@@H](Cc1ccncc1)C(=O)O; Hexanoyl = CCCCCC(=O)*
readout.type: pIC50

Worked examples follow.
If you can, please state the reported pIC50 value of CCCCCC(=O)N[C@H]1CSCc2cccc(c2)CSC[C@@H](C(N)=O)NC(=O)[C@H](C)NC(=O)[C@H](CCC(=O)O)NC(=O)[C@H]([C@@H](C)O)NC(=O)[C@@H]2CCCN2C(=O)[C@@H]2CCCN2C1=O [3BP-3350] (Hexanoyl-CPPTEAC-NH2; linker 1-7 via mXylylene) . 6.10 to 7.00

If you can, please state the reported pIC50 value of CCCCCC(=O)N[C@H]1CSCc2cccc(c2)CSC[C@@H](C(=O)N[C@@H](CC(=O)O)C(=O)NCCCNCCOCCOCCCNC(=O)CCC(=O)N[C@@H](CCCCNC(=O)CN2CCN(CC(=O)O)CCN(CC(=O)O)CCN(CC(=O)O)CC2)C(N)=O)NC(=O)[C@H](Cc2ccccc2)NC(=O)[C@H](CCC(N)=O)NC(=O)[C@H]([C@@H](C)O)NC(=O)[C@@H]2CCCN2C(=O)[C@@H]2CCCN2C1=O [3BP-3395] (Hexanoyl-CPPTQFCD-X19; linker 1-7 via mXylylene) . > 8.00

Hi! Can you tell me pIC50 for each of these molecules?
1. CSCC[C@H](NC(C)=O)C(=O)N[C@H]1CSCc2cccc(c2)CSC[C@@H](C(=O)N[C@@H](CC(=O)O)C(=O)N[C@@H](Cc2c[nH]cn2)C(=O)N[C@@H](Cc2ccncc2)C(=O)N[C@@H](CCCNC(=N)N)C(=O)N[C@@H](CC(=O)O)C(N)=O)NC(=O)[C@H](Cc2ccccc2)NC(=O)[C@H](CCC(=O)O)NC(=O)[C@H]([C@@H](C)O)NC(=O)[C@@H]2CCCN2C(=O)[C@@H]2CCCN2C1=O [3BP-3191] (Ac-MCPPTEFCDH[4Pal]RD-NH2; linker 2-8 via mXylylene)
2. CSCC[C@H](NC(C)=O)C(=O)N[C@H]1CSCc2cccc(c2)CSC[C@@H](C(=O)N[C@@H](CC(=O)O)C(=O)N[C@@H](Cc2c[nH]cn2)C(=O)N[C@@H](Cc2ccccc2)C(=O)N[C@@H](CCCNC(=N)N)C(=O)N[C@@H](CC(=O)O)C(N)=O)NC(=O)[C@H](Cc2ccccc2)NC(=O)[C@H](CCC(=O)O)NC(=O)[C@H]([C@@H](C)O)NC(=O)[C@@H]2CCCN2C(=O)[C@@H](C)NC1=O [3BP-3215] (Ac-MC[dA]PTEFCDHFRD-NH2; linker 2-8 via mXylylene)
3. CCCCCC(=O)N[C@H]1CSCc2cccc(c2)CSC[C@@H](C(=O)N[C@@H](CC(=O)O)C(N)=O)NC(=O)[C@H](Cc2ccccc2)NC(=O)[C@H](CCC(N)=O)NC(=O)[C@H]([C@@H](C)O)NC(=O)[C@@H]2CCCN2C(=O)[C@@H]2CCCN2C1=O [3BP-3476] (Hexanoyl-CPPTQFCD-NH2; linker 1-7 via mXylylene)

> 8.00
6.10 to 7.00
> 8.00

* * *

# assay.info: in vivo
# condition: rat, plasma, intravenous, 20 nmol/kg, Vz, rat plasma
readout.type: Vd

If you can, please state the reported Vd value of `CCCCCC(=O)N[C@H]1CSCc2cc(CSCCNC(=O)CN3CCN(CC(=O)O)CCN(CC(=O)O)CCN(CC(=O)O)CC3)cc(c2)CSC[C@@H](C(=O)O)NC(=O)[C@H](Cc2ccccc2)NC(=O)[C@H](CCC(N)=O)NC(=O)[C@H]([C@@H](C)O)NC(=O)[C@@H]2CCCN2C(=O)[C@@H]2CCCN2C1=O` . 0.35 L/kg

* * *

# system: FAP-expressing human WI-38 fibroblasts (Homo sapiens, UniProt Q12884)
# Construct: FAP-expressing human WI-38 fibroblasts (ECACC) were cultured in EMEM; host or cells: WI-38 human fibroblasts
# Sequence (Q12884 1-760): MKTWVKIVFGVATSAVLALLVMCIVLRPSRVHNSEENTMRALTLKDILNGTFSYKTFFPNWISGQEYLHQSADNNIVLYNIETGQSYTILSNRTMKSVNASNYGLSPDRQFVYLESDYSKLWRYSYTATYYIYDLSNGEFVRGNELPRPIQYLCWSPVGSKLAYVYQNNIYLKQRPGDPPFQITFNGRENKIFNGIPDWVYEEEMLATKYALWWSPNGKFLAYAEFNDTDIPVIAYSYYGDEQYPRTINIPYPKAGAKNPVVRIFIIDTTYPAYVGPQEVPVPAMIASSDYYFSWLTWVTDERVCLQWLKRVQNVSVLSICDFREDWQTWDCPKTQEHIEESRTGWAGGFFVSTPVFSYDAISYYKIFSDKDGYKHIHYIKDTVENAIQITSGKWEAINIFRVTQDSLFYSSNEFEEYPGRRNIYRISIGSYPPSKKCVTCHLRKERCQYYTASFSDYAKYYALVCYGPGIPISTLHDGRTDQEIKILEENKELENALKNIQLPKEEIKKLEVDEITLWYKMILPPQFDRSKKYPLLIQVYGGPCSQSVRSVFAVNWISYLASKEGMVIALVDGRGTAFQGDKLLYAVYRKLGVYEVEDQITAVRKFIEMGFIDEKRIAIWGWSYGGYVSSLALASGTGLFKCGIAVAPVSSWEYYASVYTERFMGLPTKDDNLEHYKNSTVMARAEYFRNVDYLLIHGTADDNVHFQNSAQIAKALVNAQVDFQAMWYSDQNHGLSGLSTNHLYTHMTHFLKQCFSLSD
# assay.info: Competitive FACS binding assay
# condition: pIC50 Category (FACS), competition with 3 nM Cy5-labeled compound, 4° C., 1 hour
Numbered stars: 1 amine (or outer) side, 2 acyl side, 3 side chain; on linkers, the order of the positions; unused ones are H or OH. Bridge positions count the residues as written; N and C are the ends. Square brackets hold non-standard residues; d marks the D form. Peptide text beside a SMILES is read from it. * marks the point of attachment. X5 = O=C(O)CN1CCN(CC(=O)O)CCN(CC(=O)NCCSCc2cc(CSC[C@@H](CO)N[*:2])cc(C[*:1])c2)CCN(CC(=O)O)CC1; X1 = O=C(O)CN1CCN(CC(=O)O)CCN(CC(=O)N2CCN(Cc3cc(C[*:1])cc(C[*:2])c3)CC2)CCN(CC(=O)O)CC1; X42 = NCCNCC(CNCCN)C(=O)N[C@@H](CCC(=O)NCCCOCCOCCOCCCN*)C(=O)O; mXylylene = c1cc(C[*:1])cc(C[*:2])c1; Suc = O=C(CCC(=O)[*:2])[*:1]; Nle = CCCC[C@H](N)C(=O)O; Hexanoyl = CCCCCC(=O)*; Sar = CNCC(=O)O
Provide the reported IC50 of each item.

Worked examples follow.
# returns recorded IC50 (system: FAP-expressing human WI-38 fibroblasts (Homo sapiens, UniProt Q12884)) for CCCCCC(=O)N[C@H]1CSCc2cc(cc(CN3CCN(C(=O)CN4CCN(CC(=O)O)CCN(CC(=O)O)CCN(CC(=O)O)CC4)CC3)c2)CSC[C@@H](C(=O)O)NC(=O)[C@H](Cc2ccccc2)NC(=O)[C@H](CCC(N)=O)NC(=O)[C@H]([C@@H](C)O)NC(=O)[C@@H]2CCCN2C(=O)CN(C)C1=O [3BP-3771] (Hexanoyl-C[Sar]PTQFC-OH; linker 1-7 via X1) < 10 nM

# returns recorded IC50 (system: FAP-expressing human WI-38 fibroblasts (Homo sapiens, UniProt Q12884)) for `CCCCCC(=O)N[C@H]1CSCc2cc(CSCCNC(=O)c3ccc(NN)nc3)cc(c2)CSC[C@@H](C(=O)O)NC(=O)[C@H](Cc2ccccc2)NC(=O)[C@H](CCC(N)=O)NC(=O)[C@H]([C@@H](C)O)NC(=O)[C@@H]2CCCN2C(=O)[C@@H]2CCCN2C1=O` 10 to 79.4 nM

# returns recorded IC50 (system: FAP-expressing human WI-38 fibroblasts (Homo sapiens, UniProt Q12884)) for CCCC[C@H](NC(=O)CCC(=O)NCCCOCCOCCOCCCNC(=O)CC[C@H](NC(=O)C(CNCCN)CNCCN)C(=O)O)C(=O)N[C@H]1CSCc2cccc(c2)CSC[C@@H](C(=O)O)NC(=O)[C@H](Cc2ccccc2)NC(=O)[C@H](CCC(=O)O)NC(=O)[C@H]([C@@H](C)O)NC(=O)[C@@H]2CCCN2C(=O)[C@@H]2CCCN2C1=O [3BP-4245] ({X42-Suc}-[Nle]CPPTEFC-OH; linker 2-8 via mXylylene) 10 to 79.4 nM

Hi! Can you tell me IC50 for each of these molecules?
1. CCCCCC(=O)N[C@H]1CSCc2cc(CSCCNC(=O)CN3CCN(CC(=O)O)CCN(CC(=O)O)CCN(CC(=O)O)CC3)cc(c2)CSC[C@@H](CO)NC(=O)[C@H](Cc2ccccc2)NC(=O)[C@H](CCC(N)=O)NC(=O)[C@H]([C@@H](C)O)NC(=O)[C@@H]2CCCN2C(=O)[C@@H]2CCCN2C1=O [3BP-3762] (Hexanoyl-CPPTQF; linker 1-C via X5)
2. CCCCCC(=O)N[C@H]1CSCc2cc(CSCCNC(=O)CN3CCN4CCN5CCN(CC3)CC(=O)[O][Ga]([O]C(=O)C4)[O]C(=O)C5)cc(c2)CSC[C@@H](C(=O)O)NC(=O)[C@H](Cc2ccccc2)NC(=O)[C@H](CCC(N)=O)NC(=O)[C@H]([C@@H](C)O)NC(=O)[C@@H]2CCCN2C(=O)[C@@H]2CCCN2C1
3. CCCCCC(=O)N[C@H]1CSCc2cc(CSCCNC(=O)[C@H](CS)NC(=O)[C@H](CC(=O)O)NC(=O)[C@@H](N)CC(=O)O)cc(c2)CSC[C@@H](C(=O)O)NC(=O)[C@H](Cc2ccccc2)NC(=O)[C@H](CCC(N)=O)NC(=O)[C@H]([C@@H](C)O)NC(=O)[C@@H]2CCCN2C(=O)[C@@H]2CCCN2C1=O

1. > 1000 nM
2. < 10 nM
3. 100 to 794 nM

Data origin, for the record: patent US20220315554A1
